- TEST TARGET: Cst6 (UniProt P40535)
- Sequence (P40535 whole entry): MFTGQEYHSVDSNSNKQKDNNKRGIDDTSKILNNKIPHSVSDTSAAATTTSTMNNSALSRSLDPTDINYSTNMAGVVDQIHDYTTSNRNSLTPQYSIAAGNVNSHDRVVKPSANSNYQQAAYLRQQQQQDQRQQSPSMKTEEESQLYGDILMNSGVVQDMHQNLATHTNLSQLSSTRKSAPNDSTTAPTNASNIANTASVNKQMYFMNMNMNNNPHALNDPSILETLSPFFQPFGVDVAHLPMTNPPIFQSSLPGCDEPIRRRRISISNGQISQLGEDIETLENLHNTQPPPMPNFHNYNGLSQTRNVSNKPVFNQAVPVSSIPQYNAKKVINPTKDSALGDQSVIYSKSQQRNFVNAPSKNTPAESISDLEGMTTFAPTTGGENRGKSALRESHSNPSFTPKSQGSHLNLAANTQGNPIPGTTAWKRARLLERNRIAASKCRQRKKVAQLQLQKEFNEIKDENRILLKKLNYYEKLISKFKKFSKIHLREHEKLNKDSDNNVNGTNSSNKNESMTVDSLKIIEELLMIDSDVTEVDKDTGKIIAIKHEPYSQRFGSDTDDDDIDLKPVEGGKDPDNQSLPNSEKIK
- PROCEDURE DETAILS: PBM E-score (8-mer binding enrichment) (E-score (-0.5 to 0.5)); higher = stronger / more preferred TF binding
- SETTINGS: protein concentration: 200 nM; construct: GST-DNA-binding domain
In all, about 33,000 sequences were measured (“E-score (-0.5 to 0.5)”: median about -0.016, highest 2% from about 0.31 on). For the sample, the highest values were picked, then their nearest neighbours and some sequences at random.
Quick rule for you: PBM E-score at 0.05 or higher means Met, lower means Not met.

Solved cases (10 shown):
CATTCGTC; Met
TAACGTCA; Met
CTTCCAAC; Not met
ATGTAAGA; Met
AAGCACGT; Met
ACAAGAAA; Met
AATTCGTC; Met
GAACGTCC; Not met
CAACGTCC; Not met
AATTCGTA; Met

Is reported PBM E-score greater than or equal to 0.05 here: AATGATGT Met

Can CCGTAAAA be said to have PBM E-score at or above 0.05? Met

Confirm if PBM E-score reported for the sequence CCGTCACC is 0.05 or above. Met

Record AATGATTC ; criterion: PBM E-score no lower than 0.05. Met? Met

---

Listed here are sequences together with their documented PBM E-score.
- TEST TARGET: Cst6 (UniProt P40535)
- PROCEDURE DETAILS: PBM E-score (8-mer binding enrichment) (E-score (-0.5 to 0.5)); higher = stronger / more preferred TF binding
- SETTINGS: protein concentration: 200 nM; construct: GST-DNA-binding domain
In all, about 33,000 sequences were measured (“E-score (-0.5 to 0.5)”: median about -0.016, highest 2% from about 0.31 on). For the sample, the highest values were picked, then their nearest neighbours and some sequences at random.
Respond using a number only.

Use the examples below as a reference point.
CGCATCCC; -0.216
TATCATCA; 0.341
CAACCTTA; 0.0972
CAGACGTC; 0.113

If you can, please state the reported PBM E-score value of GGCGATTA . 0.188

If you can, please state the reported PBM E-score value of ATTGAGCG . -0.0477

What measured PBM E-score goes with AGCACGGC ? 0.198

Dear colleague, I am looking for the recorded PBM E-score of the following sequence: AAAAAAAA 0.317

What value of PBM E-score has been recorded for this entry: AACTGAAG 0.0725

---

- TEST TARGET: Cst6 (UniProt P40535)
- PROCEDURE DETAILS: PBM E-score (8-mer binding enrichment) (E-score (-0.5 to 0.5)); higher = stronger / more preferred TF binding
- SETTINGS: protein concentration: 200 nM; construct: GST-DNA-binding domain
Over roughly 33,000 sequences, “E-score (-0.5 to 0.5)” has its median near -0.016; the highest 2% begin near 0.31. What follows is part of a selection rich in the highest values, with near analogues and random picks from the rest.
Each item that follows carries a reported PBM E-score.
Please reply with the number alone, leaving off any unit.

ACTGGTGA; -0.0583
ATGTAATC; 0.299
ATGTAATA; 0.415
ACAATGGG; 0.0198
AGACGAAA; 0.134
ATGAGCCG; 0.0382
ACCAAACA; 0.277
TGAAATCA; 0.322
CATCCTAC; -0.0877
CCTTACCC; -0.0626

Fill in the recorded PBM E-score for this sequence, with Cst6 (UniProt P40535) as test system: TGACGACA 0.476

Form entry - test system: Cst6 (UniProt P40535); read-out: PBM E-score; sequence: GGACGAAA 0.0732

Query the reported PBM E-score for Cst6 (UniProt P40535); item: CGACGACA -0.054
